biological target: T1, human GLP-1 receptor (human, UniProt P43220 24-463); test: SPA displacement of [125I]GLP-1(7-36)NH2 from hGLP-1R BHK membranes
T1 construct: whole, on cells; reporter assay on whole cells
*1 amine or outer side, *2 acyl side, *3 side chain or, on linkers, in order; H or OH if unused. Where no end group is shown, it is not given here. Side-chain parts run from the residue outwards. [ ]: non-standard residue; d: D form. The star is where a group is joined. C18 diacid = O=C(O)CCCCCCCCCCCCCCCCC(=O)*; C16 diacid = O=C(O)CCCCCCCCCCCCCCC(=O)*; γGlu = O=C(O)[C@H](CCC(=O)[*:2])N[*:1]; Desaminohistidyl = O=C(CCc1c[nH]cn1)*; Ac4c = NC1(C(=O)O)CCC1; AEEA = NCCOCCOCC(=O)O; Aib = CC(C)(N)C(=O)O
Quick list: IC50 per entry.
Write the number in nM without appending the unit.

Example cases with answers are listed next.
binder: [Desaminohistidyl][Ac4c]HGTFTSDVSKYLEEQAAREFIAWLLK([Gly-Ser-Glu-Gly-Ser-γGlu-γGlu-C18 diacid])T-NH2
measurement-units: nM
IC50: 0.1
//
binder: [Desaminohistidyl][Aib]HGTFTSDVSKYLEK([γGlu-γGlu-AEEA-AEEA-γGlu-C18 diacid])QAAREFIAWLLKGGG
measurement-units: nM
IC50: 0.5
//
binder: [Desaminohistidyl][Aib]HGTFTSDLSKYLEEQAAREFIAWLLK([Ado-Ado-γGlu-γGlu-C18 diacid])T-NH2
measurement-units: nM
IC50: 1.1

# ---- query binder ----
Query: Field request: IC50 | item: [Desaminohistidyl][Aib]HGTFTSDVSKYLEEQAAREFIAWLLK([Ado-Ado-γGlu-γGlu-C16 diacid])T-NH2
Response: 1.3
